Assay: Biodistribution of 99mTc labelled complexes in rats (Tc brain bioassay, Example 64, Table I)
Assay type: in vivo, Female Sprague-Dawley rats
Settings: rat, i.v. tail vein, 30 min post injection
Readout type: Brain:blood

{"columns": ["Molecule", "Endpoint result"],
 "data": [
  ["C[SH]1c2ccccc2[N]2CC(=O)[N]3CC(C)(C)[S][Tc]321=[O] (centres unmarked)", 0.08],
  ["C[SH]1C(C)(C)C(=O)[N]2CC[N]3c4ccccc4[S][Tc]231=[O] (centres unmarked)", 1.54],
  ["CC1(C)C(=O)[N]2CC[N]3c4ccccc4[S][Tc]23(=[O])[SH]1CCC#N (centres unmarked)", 0.21],
  ["CCCC[SH]1C(C)(C)C(=O)[N]2CC[N]3c4ccccc4[S][Tc]231=[O] (centres unmarked)", 1.66],
  ["COC(=O)C[SH]1C(C)(C)C(=O)[N]2CC[N]3c4ccccc4[S][Tc]231=[O] (centres unmarked)", 0.06]
]}

###

Test: Biodistribution of 99mTc labelled complexes in rats (Tc brain bioassay, Example 64, Table I)
Type: in vivo, Female Sprague-Dawley rats
Conditions: rat, i.v. tail vein, 5 min post injection
The following compounds are listed with their measured Heart:blood values.
Readout type: Heart:blood

{"columns": ["Compound", "Readout type", "Endpoint result"],
 "data": [
  ["C#CC[SH]1C(C)(C)C(=O)[N]2CC[N]3c4ccccc4[S][Tc]231=[O] (stereo not shown) [Example T722]", "Heart:blood", 0.67],
  ["C[SH]1C(C)(C)C(=O)[N]2CC[N]3c4ccccc4[S][Tc]231=[O] (stereo not shown) [Example T711]", "Heart:blood", 3.38],
  ["CC[SH]1C(C)(C)C(=O)[N]2CC[N]3c4ccccc4[S][Tc]231=[O] (stereo not shown) [Example T715]", "Heart:blood", 3.73],
  ["CC1(C)C(=O)[N]2CC[N]3c4ccccc4[S][Tc]23(=[O])[SH]1CCCN (stereo not shown) [Example T728]", "Heart:blood", 4.36],
  ["C[SH]1c2ccccc2[N]2CC(=O)[N]3CC(C)(C)[S][Tc]321=[O] (stereo not shown) [Example T729]", "Heart:blood", 0.34],
  ["CCC[SH]1C(C)(C)C(=O)[N]2CC[N]3c4ccccc4[S][Tc]231=[O] (stereo not shown) [Example T713]", "Heart:blood", 3.68],
  ["C[SH]1c2ccccc2[N]2CC[N]3C(=O)C(C)(C)[S][Tc]321=[O] (stereo not shown) [Example T712]", "Heart:blood", 1.07]
]}
